# MEASUREMENT_DESCRIPTION: Urinary excretion of CR665 after single IV infusion in human subjects
# Type: in vivo
# EXPERIMENTAL_CONTEXT: male, human, urine and plasma; males, 0.03 mg/kg, 5-minute IV infusion, geometric mean; read-out: CLR 0-24 h
Where a name gives a salt, the structure may show the parent alone. Non-standard residues stand in square brackets, D forms with d. Residues, ends and D or L forms follow the SMILES beside them. *: point of attachment. NH(4-picolyl) = c1cc(CN*)ccn1; dNle = CCCC[C@@H](N)C(=O)O
MEASURED_PARAMETER: CL renal (mL/min)
Give the value, in units of mL/min, as a plain number.

Consider the compound shown here: CCCC[C@@H](NC(=O)[C@@H](Cc1ccccc1)NC(=O)[C@H](N)Cc1ccccc1)C(=O)N[C@H](CCCNC(=N)N)C(=O)NCc1ccncc1 [CR665, acetate salt] (H-[dF][dF][dNle][dR]-{NH(4-picolyl)}) What is its recorded CL renal?
17.1

###

# MEASUREMENT_DESCRIPTION: Plasma pharmacokinetics of CR665 after single IV infusion in human subjects
# EXPERIMENTAL_CONTEXT: male, human, plasma, iv, 0.12 mg/kg, tmax, males, 1 hour IV infusion, median
Structures can show the parent of a compound that is named as a salt. Non-standard residues stand in square brackets, D forms with d. Residues, ends and D or L forms follow the SMILES beside them. *: point of attachment. NH(4-picolyl) = c1cc(CN*)ccn1; dNle = CCCC[C@@H](N)C(=O)O
MEASURED_PARAMETER: Tmax (min)
Give the value, in units of min, as a plain number.

Consider the compound shown here: CCCC[C@@H](NC(=O)[C@@H](Cc1ccccc1)NC(=O)[C@H](N)Cc1ccccc1)C(=O)N[C@H](CCCNC(=N)N)C(=O)NCc1ccncc1 [CR665, acetate salt] (H-[dF][dF][dNle][dR]-{NH(4-picolyl)}) What is its recorded Tmax?
45

###

# MEASUREMENT_DESCRIPTION: Urinary excretion of CR665 after single IV infusion in human subjects
# Format: in vivo
# EXPERIMENTAL_CONTEXT: male, human, urine, iv, males, all dose levels, 5-minute infusion, up to 24 hours post-dose; read-out: Fraction of the dose excreted in the urine as unchanged drug
Structures can show the parent of a compound that is named as a salt. Non-standard residues stand in square brackets, D forms with d. Residues, ends and D or L forms follow the SMILES beside them. *: point of attachment. NH(4-picolyl) = c1cc(CN*)ccn1; dNle = CCCC[C@@H](N)C(=O)O
MEASURED_PARAMETER: dose excreted

Consider the compound shown here: CCCC[C@@H](NC(=O)[C@@H](Cc1ccccc1)NC(=O)[C@H](N)Cc1ccccc1)C(=O)N[C@H](CCCNC(=N)N)C(=O)NCc1ccncc1 [CR665, acetate salt] (H-[dF][dF][dNle][dR]-{NH(4-picolyl)}) What is its recorded dose excreted?
~3.5%

###

# MEASUREMENT_DESCRIPTION: Plasma pharmacokinetics of CR665 after single IV infusion in human subjects
# EXPERIMENTAL_CONTEXT: male, human, plasma, iv, 0.06 mg/kg, tmax, males, 5-minute IV infusion, median
Counter-ions that a name gives are not always drawn. Non-standard residues stand in square brackets, D forms with d. Residues, ends and D or L forms follow the SMILES beside them. *: point of attachment. NH(4-picolyl) = c1cc(CN*)ccn1; dNle = CCCC[C@@H](N)C(=O)O
MEASURED_PARAMETER: Tmax (min)
Give the value, in units of min, as a plain number.

Consider the molecule shown here: CCCC[C@@H](NC(=O)[C@@H](Cc1ccccc1)NC(=O)[C@H](N)Cc1ccccc1)C(=O)N[C@H](CCCNC(=N)N)C(=O)NCc1ccncc1 [CR665, acetate salt] (H-[dF][dF][dNle][dR]-{NH(4-picolyl)}) What is its recorded Tmax?
5

###

# MEASUREMENT_DESCRIPTION: Plasma pharmacokinetics of CR665 after single IV infusion in human subjects
# EXPERIMENTAL_CONTEXT: male, human, plasma, iv, 0.36 mg/kg, MRTint, males, 1 hour IV infusion, geometric mean
# Protocol: This clinical study was conducted as a double blind, placebo controlled, ascending single intravenous (IV) dose, sequential group study. […] Plasma and urine samples for the analysis of CR665 and N oxide metabolite were prepared by solid phase extraction. The centrifuged eluates were quantified by liquid chromatography with tandem mass spectrometric detection (LC MS/MS). The lower limit of quantification was 1 ng/mL. […]
Structures can show the parent of a compound that is named as a salt. Non-standard residues stand in square brackets, D forms with d. Residues, ends and D or L forms follow the SMILES beside them. *: point of attachment. NH(4-picolyl) = c1cc(CN*)ccn1; dNle = CCCC[C@@H](N)C(=O)O
MEASURED_PARAMETER: MRT (min)
Give the value, in units of min, as a plain number.

Consider the molecule shown here: CCCC[C@@H](NC(=O)[C@@H](Cc1ccccc1)NC(=O)[C@H](N)Cc1ccccc1)C(=O)N[C@H](CCCNC(=N)N)C(=O)NCc1ccncc1 [CR665, acetate salt] (H-[dF][dF][dNle][dR]-{NH(4-picolyl)}) What is its recorded MRT?
37.4

###

# MEASUREMENT_DESCRIPTION: Plasma pharmacokinetics of CR665 after single IV infusion in human subjects
# EXPERIMENTAL_CONTEXT: male, human, plasma, iv, 0.06 mg/kg, CL, males, 1 hour IV infusion, geometric mean
Counter-ions that a name gives are not always drawn. Non-standard residues stand in square brackets, D forms with d. Residues, ends and D or L forms follow the SMILES beside them. *: point of attachment. NH(4-picolyl) = c1cc(CN*)ccn1; dNle = CCCC[C@@H](N)C(=O)O
MEASURED_PARAMETER: clearance (mL/min)
Give the value, in units of mL/min, as a plain number.

Consider the compound shown here: CCCC[C@@H](NC(=O)[C@@H](Cc1ccccc1)NC(=O)[C@H](N)Cc1ccccc1)C(=O)N[C@H](CCCNC(=N)N)C(=O)NCc1ccncc1 [CR665, acetate salt] (H-[dF][dF][dNle][dR]-{NH(4-picolyl)}) What is its recorded clearance?
564

###

# MEASUREMENT_DESCRIPTION: Plasma pharmacokinetics of CR665 after single IV infusion in human subjects
# EXPERIMENTAL_CONTEXT: male, human, plasma, iv, 0.48 mg/kg, Cmax, males, 1 hour IV infusion, geometric mean
Structures can show the parent of a compound that is named as a salt. Non-standard residues stand in square brackets, D forms with d. Residues, ends and D or L forms follow the SMILES beside them. *: point of attachment. NH(4-picolyl) = c1cc(CN*)ccn1; dNle = CCCC[C@@H](N)C(=O)O
MEASURED_PARAMETER: Cmax (ng/mL)
Give the value, in units of ng/mL, as a plain number.

Consider the molecule shown here: CCCC[C@@H](NC(=O)[C@@H](Cc1ccccc1)NC(=O)[C@H](N)Cc1ccccc1)C(=O)N[C@H](CCCNC(=N)N)C(=O)NCc1ccncc1 [CR665, acetate salt] (H-[dF][dF][dNle][dR]-{NH(4-picolyl)}) What is its recorded Cmax?
982

###

# MEASUREMENT_DESCRIPTION: Plasma pharmacokinetics of CR665 after single IV infusion in human subjects
# EXPERIMENTAL_CONTEXT: female, human, plasma, iv, 0.24 mg/kg, CL, females, 1-hour IV infusion, geometric mean
Where a name gives a salt, the structure may show the parent alone. Non-standard residues stand in square brackets, D forms with d. Residues, ends and D or L forms follow the SMILES beside them. *: point of attachment. NH(4-picolyl) = c1cc(CN*)ccn1; dNle = CCCC[C@@H](N)C(=O)O
MEASURED_PARAMETER: clearance (mL/min)
Give the value, in units of mL/min, as a plain number.

Consider the compound shown here: CCCC[C@@H](NC(=O)[C@@H](Cc1ccccc1)NC(=O)[C@H](N)Cc1ccccc1)C(=O)N[C@H](CCCNC(=N)N)C(=O)NCc1ccncc1 [CR665, acetate salt] (H-[dF][dF][dNle][dR]-{NH(4-picolyl)}) What is its recorded clearance?
557

###

# MEASUREMENT_DESCRIPTION: Plasma pharmacokinetics of CR665 after single IV infusion in human subjects
# EXPERIMENTAL_CONTEXT: male, human, plasma, iv, 0.12 mg/kg, t1/2, males, 1 hour IV infusion, geometric mean
Counter-ions that a name gives are not always drawn. Non-standard residues stand in square brackets, D forms with d. Residues, ends and D or L forms follow the SMILES beside them. *: point of attachment. NH(4-picolyl) = c1cc(CN*)ccn1; dNle = CCCC[C@@H](N)C(=O)O
MEASURED_PARAMETER: half-life (h)
Give the value, in units of h, as a plain number.

Consider the molecule shown here: CCCC[C@@H](NC(=O)[C@@H](Cc1ccccc1)NC(=O)[C@H](N)Cc1ccccc1)C(=O)N[C@H](CCCNC(=N)N)C(=O)NCc1ccncc1 [CR665, acetate salt] (H-[dF][dF][dNle][dR]-{NH(4-picolyl)}) What is its recorded half-life?
1.65
